The values you see were collected from patent US20100093706A1.

Target: DAT (h) (Homo sapiens)
Construct: expressed in transfected cells
Sequence (Q01959 whole entry): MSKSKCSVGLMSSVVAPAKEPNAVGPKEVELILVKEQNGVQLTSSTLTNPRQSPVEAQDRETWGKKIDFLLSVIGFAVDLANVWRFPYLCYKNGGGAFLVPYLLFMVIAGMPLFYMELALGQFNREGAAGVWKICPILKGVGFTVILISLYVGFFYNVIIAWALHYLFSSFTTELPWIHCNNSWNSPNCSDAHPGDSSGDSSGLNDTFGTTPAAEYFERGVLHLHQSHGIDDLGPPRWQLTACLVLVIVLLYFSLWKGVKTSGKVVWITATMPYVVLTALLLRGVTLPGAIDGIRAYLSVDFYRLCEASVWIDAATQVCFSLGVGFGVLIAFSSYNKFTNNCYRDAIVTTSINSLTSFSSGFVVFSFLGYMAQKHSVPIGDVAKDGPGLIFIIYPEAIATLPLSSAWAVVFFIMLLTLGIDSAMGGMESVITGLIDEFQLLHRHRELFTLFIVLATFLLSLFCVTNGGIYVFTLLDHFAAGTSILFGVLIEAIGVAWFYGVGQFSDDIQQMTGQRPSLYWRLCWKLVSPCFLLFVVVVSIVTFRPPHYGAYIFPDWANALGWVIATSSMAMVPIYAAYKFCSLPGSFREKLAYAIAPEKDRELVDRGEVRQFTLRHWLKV
Experiment: cell-based
Type: cell-based
Conditions: human; nM; read-out: DAT (h) in vitro functional uptake
readout kind: EC50 (nM)
API: value field is a number in nM; no unit string.

IN: Give its EC50 value. Item: C[C@H]1CC[C@@H](COc2ccc(C(F)(F)F)cc2)CN1C[C@@H](O)C1(c2ccc(Cl)cc2)CCC1 [(17)]
OUT: 1

IN: Ok, now C[C@@H]1CC[C@@H](COc2ccc(C(F)(F)F)cc2)CN1C[C@@H](O)C1(c2ccc(Cl)cc2)CCC1 [(21)]
OUT: 1

IN: Ok, now C[C@@H]1CC[C@H](COc2ccc(C(F)(F)F)cc2)CN1C[C@@H](O)C1(c2ccc(Cl)cc2)CCC1 [(20)]
OUT: 1

IN: Ok, now CN[C@H](CC(C)C)C1(c2ccc(Cl)cc2)CCC1 [R-DMS, reference compound]
OUT: 30

IN: Ok, now C[C@H]1CC[C@@H](COc2ccc(C(F)(F)F)cc2)CN1C[C@H](O)C1(c2ccc(Cl)cc2)CCC1 [(18)]
OUT: 1

IN: Ok, now CC1CCN(CC2(c3ccc(Cl)cc3)CCC2)CC1COc1ccc(C(F)(F)F)cc1 (stereo not shown) [(1)]
OUT: 1

IN: Ok, now C[C@@H]1CC[C@H](COc2ccc(C(F)(F)F)cc2)CN1C[C@H](O)C1(c2ccc(Cl)cc2)CCC1 [(19)]
OUT: 1

IN: Ok, now C[C@@H]1[C@H](COc2ccc(C(F)(F)F)cc2)CCCN1CC(O)C1(c2ccc(Cl)cc2)CCC1 (stereo partly shown) [(6′)]
OUT: 3

IN: Ok, now CC(C)C[C@@H](N)C1(c2ccc(Cl)cc2)CCC1 [R-DDMS, reference compound]
OUT: 100

---

Target: NET (h) (Homo sapiens, UniProt P23975)
Construct: expressed in transfected cells; host or cells: MDCK
Sequence (P23975 whole entry): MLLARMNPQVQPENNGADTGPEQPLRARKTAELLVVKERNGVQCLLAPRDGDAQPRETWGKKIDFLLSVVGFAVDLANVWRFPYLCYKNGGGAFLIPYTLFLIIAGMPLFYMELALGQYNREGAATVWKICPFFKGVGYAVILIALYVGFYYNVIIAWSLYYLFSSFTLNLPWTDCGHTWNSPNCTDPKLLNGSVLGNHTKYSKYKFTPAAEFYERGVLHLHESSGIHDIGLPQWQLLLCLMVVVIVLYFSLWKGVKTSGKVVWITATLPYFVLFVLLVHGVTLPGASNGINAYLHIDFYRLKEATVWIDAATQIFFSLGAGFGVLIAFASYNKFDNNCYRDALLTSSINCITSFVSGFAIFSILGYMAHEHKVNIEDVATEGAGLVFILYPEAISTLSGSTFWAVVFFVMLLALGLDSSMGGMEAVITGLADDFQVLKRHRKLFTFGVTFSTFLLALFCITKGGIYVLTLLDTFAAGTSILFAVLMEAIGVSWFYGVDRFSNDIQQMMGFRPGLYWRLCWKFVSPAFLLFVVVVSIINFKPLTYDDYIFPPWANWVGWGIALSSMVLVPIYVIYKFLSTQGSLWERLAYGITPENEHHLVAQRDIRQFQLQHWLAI
Test: cell-based
Assay type: cell-based
Conditions: read-out: NET (h) in vitro functional uptake
Experimental: Functional activity of the compounds was determined in vitro in cellular assays using recombinant human cell lines.
readout kind: EC50
Param answer (str): number followed by unit.

IN: Give its EC50 value. Item: CC1CCC(COc2ccc(C(F)(F)F)cc2)CN1CC1(c2ccc(Cl)cc2)CCC1 (stereo not shown)
OUT: 200 nM

---

Target: DAT (h) (Homo sapiens)
Construct: expressed in transfected cells
Assay: cell-based
Assay type: cell-based
For each record, write down the corresponding pEC50.
Would you please state pEC50, meaning minus log10 of the concentration in mol/L, as a bare number?

IN: Reported pEC50 for DAT (h) (Homo sapiens), given CC1CCC(COc2ccc(C(F)(F)F)cc2)CN1CC1(c2ccc(Cl)cc2)CCC1 (centres unmarked) ?
OUT: 9.00

IN: Ok, now CC1C(COc2ccc(C(F)(F)F)cc2)CCCN1CC1(c2ccc(Cl)cc2)CCC1 (centres unmarked)
OUT: 8.30

---

Molecular target: NET (norepinephrine transporter or SLC6A2) (Homo sapiens, UniProt P23975)
Sequence (P23975 whole entry): as the sequence (P23975 whole entry) above
Experiment: cell-based
Conditions: own compounds tested as racemic mixtures of enriched diastereomers
readout kind: IC50

IN: Give its IC50 value. Item: CC1CCN(CC2(c3ccc(Cl)cc3)CCC2)CC1COc1ccc(C(F)(F)F)cc1 (stereo not shown)
OUT: 175 nM
